# System: BT-549 breast
# assay_comment: NCI-60 one-dose screen, 48 h (100 = growth as untreated, 0 = no growth, -100 = all killed)
# settings: 10 µM unless noted
Compounds without any hit were thinned out: in the full panel of roughly 83,000, 20% have a hit.
Binning of growth into classes: zone 1: < 60%; zone 2: ≥ 60% and < 90%; zone 3: ≥ 90%

Hi there! Could you help me figure out the category for CCOC(=O)C1=C(C)N2C(=NC3=C(CCCC/C3=C\c3ccccc3)C2c2ccccc2)S1 (stereo not given) please? zone 3

Hi there! Could you help me figure out the category for CC1SC(c2ccc(Cl)cc2)N(CCc2cccs2)C1=O (stereo not given) please? zone 1

Hi there! Could you help me figure out the category for COc1cc(-c2nc3ccccc3o2)cc(CN2CCN(c3ccccc3)CC2)c1O please? zone 1

Hi there! Could you help me figure out the category for COc1ccc(-n2ncc3c2ccc2cc(S(=O)(=O)c4ccccc4)c(=O)n(C)c23)cc1 please? zone 2

Hi there! Could you help me figure out the category for O=C1c2ccccc2C(=O)c2c(Nc3ccc(CCO)cc3)ccc(O)c21 please? zone 1

Hi there! Could you help me figure out the category for COc1cc(C2CC(=O)Nc3c2ccc2ccccc32)cc(Br)c1OC (stereo not given) please? zone 1

Hi there! Could you help me figure out the category for Cc1nc2cc(Nc3nc(N4CCCCC4)nc(N4CCOCC4)n3)ccc2n1Cc1ccccc1 please? zone 2

Hi there! Could you help me figure out the category for Cc1ccc2nc(NC(=O)CSC(=S)N3CCN(C)CC3)sc2c1 please? zone 3

====

Please go through the items and note down their growth.
# Tested on: DU-145 prostate
# assay_comment: NCI-60 one-dose screen, 48 h (100 = growth as untreated, 0 = no growth, -100 = all killed)
# settings: 10 µM unless noted
The panel holds about 83,000 compounds, 20% with a hit somewhere; the sample as a whole holds those more often.
Numeric only. Scale: %

Could you share which growth value was measured for CC1=CN2C(=NC3=C(CCCC/C3=C\c3ccccc3)C2c2ccccc2)S1 (stereo not drawn) ? 108

Could you share which growth value was measured for CCCCCCCCCCCC(=O)[O][Sn]([CH2]CCC)([CH2]CCC)[CH2]CCC ? -98.7

Could you share which growth value was measured for CN1CCc2cccc3c2C1Cc1ccc(O)c(O)c1-3 (stereo not drawn) ? 96.3

Could you share which growth value was measured for O=C(O)CCN1CCN(c2cccc(Cl)c2)CC1 ? 118

Could you share which growth value was measured for COc1cc(/C=N/NC(=O)c2cnn3c2NC(c2ccccc2)C3)ccc1OC1CCCC1 (stereo not drawn) ? 26.5

Could you share which growth value was measured for O=[N+]([O-])c1cc2c(cc1Br)-c1ccccc1C2 ? 113

Could you share which growth value was measured for Cc1nn2c(-c3nc4ccc(Cl)cc4[nH]3)c(-c3ccc(F)cc3)nc2s1 ? 104

Could you share which growth value was measured for C=CC[P+](c1ccccc1)(c1ccccc1)c1ccccc1 ? 79.4

Could you share which growth value was measured for O=C1CC2c3cc(-c4cc5ccccc5o4)ccc3CCN2C(=O)N1c1ccccc1 (stereo not drawn) ? 96.5

Could you share which growth value was measured for Cc1nn(-c2ccccc2)c2nc3nc4c(c(N)c3c(-c3ccc(Cl)cc3)c12)CCC4 ? 90.1

Could you share which growth value was measured for CCN1C(=O)C2(Nc3ccccc3S2)c2cc(C)ccc21 (stereo not drawn) ? 101

Could you share which growth value was measured for Nc1cc(Br)c(-c2nnc(CCC(=O)c3nc4ccccc4[nH]3)o2)c(Br)c1 ? 103

Could you share which growth value was measured for COc1ccccc1/C=C/C(=O)/C=C/c1ccccc1O ? -31.2

Could you share which growth value was measured for NC(=O)c1cc(Cl)ccc1NC(=O)COc1ccccc1 ? 60.4

Could you share which growth value was measured for O=S(=O)(OCCO)c1ccccc1 ? 112

Could you share which growth value was measured for Cc1nc(NN)c([N+](=O)[O-])c(NN)n1 ? 109

Could you share which growth value was measured for CC(C)(C)[Si](C)(C)OC1[C@@H](CNC(=O)NC(=O)CCl)O[C@@H](n2cnc3c(N)ncnc32)[C@H]1O[Si](C)(C)C(C)(C)C (stereo partly drawn) ? 23

Could you share which growth value was measured for COc1cc(C2C3=C(COC3=O)N(CCO)c3cc4c(cc32)OCO4)cc(OC)c1O (stereo not drawn) ? 11.3

Could you share which growth value was measured for CCCN(CCC)c1ccc(/C=C/c2ccc3cc(OCC)ccc3n2)cc1 ? 91.6

Could you share which growth value was measured for Oc1ccc2ccccc2c1C1NN=C(c2ccccc2)S1 (stereo not drawn) ? 21.1

Could you share which growth value was measured for O/N=C/c1cccs1 ? 116

Could you share which growth value was measured for COc1ccc(-c2csc3c2-n2cccc2C3=O)cc1O ? -23.5

Could you share which growth value was measured for COc1ccc(CSc2nc3cc(OC)c(OC)cc3c(=O)n2-c2ccc(Cl)cc2)cc1 ? 109

====

# Test system: HCC-2998 colon
# assay_comment: NCI-60 one-dose screen, 48 h (100 = growth as untreated, 0 = no growth, -100 = all killed)
# settings: 10 µM unless noted
This is part of a sample that, as a whole, favours compounds with a hit. Of some 83,000 tested, about 20% had one in any assay. Activity calls are given as the source filed them. Rule for the calls: active = growth percent below 10; inactive = the rest.
assay_readout: growth

Lab note: need growth with HCC-2998 colon for entry CCOC(=O)c1cnn(CC(O)c2ccc(F)cc2)c1NC(=O)Nc1ccccc1F (stereo unspecified) , please look it up. 115% (inactive)

Lab note: need growth with HCC-2998 colon for entry CCOC(=O)c1c(Cl)c2c(n1Cc1cc(OC)cc(OC)c1)-c1oncc1CCC2 , please look it up. 55% (inactive)

Lab note: need growth with HCC-2998 colon for entry CCN(CC)c1ccc2c(c1)OS(=O)(=O)N=C2 , please look it up. 114% (inactive)

Lab note: need growth with HCC-2998 colon for entry CCCCC(=O)N/N=C/c1cc(I)cc(I)c1O , please look it up. 66.5% (inactive)

Lab note: need growth with HCC-2998 colon for entry O=c1[nH]c(-c2ccccn2)nc2sc3c(c12)CCCCCC3 , please look it up. 53.5% (inactive)

Lab note: need growth with HCC-2998 colon for entry Cc1cc(O)cc2c1[C@H]1CC[C@]3(C)[C@@H](O)CC[C@H]3[C@@H]1C=C2 , please look it up. 48.4% (inactive)

====

# System: CAKI-1 renal
# assay_comment: NCI-60 one-dose screen, 48 h (100 = growth as untreated, 0 = no growth, -100 = all killed)
# settings: 10 µM unless noted
About 83,000 compounds went through this panel and 20% of them were active in at least one assay; those are over-represented in the sample as a whole. The source made the active and inactive calls. Rule for the calls: active = growth percent below 10; inactive = the rest.
assay_readout: growth

Could you share which growth value was measured for Cc1ccc(S(=O)(=O)N2CCc3ccc(O)c4c3C2Cc2ccc3c(c2-4)OCO3)cc1 (centres undefined) ? 32% (inactive)

Could you share which growth value was measured for COc1ccc(/C=C2\CN(Cc3cn(CCCNc4ccnc5cc(Cl)ccc45)nn3)C/C(=C\c3ccc(OC)c(OC)c3)C2=O)cc1OC ? 31% (inactive)

Could you share which growth value was measured for COc1ccc(/C=N/NC(=O)c2cnn(CC(O)Cc3ccccc3)c2N)cc1OC1CCCC1 (centres undefined) ? 77.9% (inactive)

Could you share which growth value was measured for O=C(c1cnn2c1NC(c1ccc(F)cc1)C2)N1CCCCC1 (centres undefined) ? 93.4% (inactive)

Could you share which growth value was measured for COc1ccccc1CNCCCCCCCCCCCCN1C(=O)c2ccc3c4c(ccc(c24)C1=O)C(=O)N(CCCCCCCCCCCCNCc1ccccc1OC)C3=O ? 102% (inactive)

Could you share which growth value was measured for COc1cccc(-c2ccc3c(c2)C2CCN(Cc4ccccc4)C3C2)c1 (centres undefined) ? 78.4% (inactive)

Could you share which growth value was measured for NC(=O)c1cc(I)ccc1NC(=O)COc1ccccc1 ? 55.1% (inactive)

Could you share which growth value was measured for Nc1nc(N)c(N=Nc2c(Br)cc(S(N)(=O)=O)cc2Br)c(N)n1 ? 99% (inactive)

Could you share which growth value was measured for c1ccc(-c2n(Cc3ccc4ccccc4n3)c3ccccc3[n+]2Cc2ccc3ccccc3n2)cc1 ? -17.6% (active)

Could you share which growth value was measured for COc1ccc(/C=N\N2CCOCC2)cc1OC1CCCC1 ? 94.1% (inactive)

Could you share which growth value was measured for COc1cc(/C=C2\C(=O)N(c3c(Cl)cccc3Cl)c3ccccc32)cc(OC)c1O ? 7.23% (active)

Could you share which growth value was measured for COc1ccc(-c2nc3sccn3c2/C=C/C(=O)c2cc(OC)c(OC)c(OC)c2)cc1OC ? 3.29% (active)

Could you share which growth value was measured for CCN(CC)c1ccc(/C=C(\C#N)c2cc3ccccc3[nH]2)cc1 ? 41.6% (inactive)

Could you share which growth value was measured for NC1=NC(c2ccccc2OS(=O)(=O)c2ccc(Br)cc2)n2c(nc3ccccc32)N1 (centres undefined) ? 104% (inactive)

Could you share which growth value was measured for CC(=O)OCC1OC([S-])C(OC(C)=O)C(OC(C)=O)C1OC(C)=O.[Au+].c1ccc(CN2[CH-]N(Cc3ccccc3)C(c3ccccc3)=C2c2ccccc2)cc1 ? 1.53% [4.75 µM] (active)

Could you share which growth value was measured for O=S(=O)(/N=C1C=C/C(=N\S(=O)(=O)c2ccccc2)c2ccccc2\1)c1ccccc1 ? 99.4% (inactive)

Could you share which growth value was measured for COc1cc(-c2nc(SC(C)C)nc(Nc3cccc(C)c3)c2C#N)cc(OC)c1OC ? 94.5% (inactive)

Could you share which growth value was measured for Cc1ccccc1-c1cc(-c2ccc(Br)s2)[nH]c(=O)c1C#N ? 88.1% (inactive)

Could you share which growth value was measured for COc1cc(/C=C/C(=O)CC(=O)/C=C/c2cc(Br)c(OC)c(OC)c2)cc(Br)c1OC ? 105% (inactive)
